B1: Max-interacting protein 1, residues 70 to 120; numbered along this chain, P50539 (parent)
chain: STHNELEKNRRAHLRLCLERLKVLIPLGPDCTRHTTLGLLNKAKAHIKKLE

# Variants of: B1
# ASSAY: abundance fitness (aPCA) (normalised: wild type 0, dead -1); higher = more abundant; growth selection in yeast, the domain comes from the species named
# CONDITION SET: Homo sapiens
Attribute: abundance fitness
The answer should be a number; do not append a unit.

Query: abundance fitness; subject: `L21Q`
-0.495

New cases:
Query: abundance fitness; subject: `P26L`
-0.326

Likewise for `V23L` ?
0.128

Likewise for `G28V` ?
0.273
